Listing of recorded Gelatinase A, integrated density normalized to control 1.00 by entry.
Target: Gelatinase A (Homo sapiens, UniProt P08253)
Construct: endogenous in cells; host or cells: C8161
Sequence (P08253 110-660): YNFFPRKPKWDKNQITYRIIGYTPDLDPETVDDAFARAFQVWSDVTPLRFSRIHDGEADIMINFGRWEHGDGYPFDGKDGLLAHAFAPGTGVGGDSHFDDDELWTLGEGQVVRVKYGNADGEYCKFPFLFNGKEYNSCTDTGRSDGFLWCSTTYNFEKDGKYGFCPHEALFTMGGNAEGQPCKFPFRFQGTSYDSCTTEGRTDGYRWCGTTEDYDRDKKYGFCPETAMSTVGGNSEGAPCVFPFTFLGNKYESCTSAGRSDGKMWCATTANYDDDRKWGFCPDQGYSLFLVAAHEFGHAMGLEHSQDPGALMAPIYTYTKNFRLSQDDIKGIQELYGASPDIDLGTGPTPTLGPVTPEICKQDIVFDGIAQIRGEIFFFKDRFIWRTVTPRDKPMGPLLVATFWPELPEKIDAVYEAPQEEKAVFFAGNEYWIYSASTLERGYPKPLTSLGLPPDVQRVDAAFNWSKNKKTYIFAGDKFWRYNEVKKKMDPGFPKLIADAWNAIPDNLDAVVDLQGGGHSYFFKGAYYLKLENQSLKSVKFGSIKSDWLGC
Protocol Summary: Zymography with densitometry of C8161 conditioned medium, gelatinase A
Assay type: cell-based
Assay Conditions: 50 μg/mL, 24 hr
Quick one: just the number, no unit, thanks!

INSERT INTO assay_data (compound, reported_measurement) VALUES
  ('CC1(O)c2cccc(O)c2C(=O)C2=C(O)C3(O)C(=O)C(C(N)=O)=C(O)C(O)C3CC21 (stereo not drawn) [CMT-6]', 0.07),
  ('C[C@H]1c2cccc(O)c2C(O)=C2C(=O)[C@]3(O)C(O)=C(C(N)=O)C(=O)C[C@@H]3[C@@H](O)[C@@H]21 [CMT-8]', 0.70);

Kindly review the next compound as well.
[ask] Please give the measured Gelatinase A, integrated density normalized to control 1.00 for this compound: CC1(O)c2c(Cl)ccc(O)c2C(=O)C2=C(O)C3(O)C(=O)C(C(N)=O)=C(O)CC3CC21 (stereo not drawn) [CMT-4, 4-de(dimethylamino)-7-chlorotetracycline]
[reply] 0.75
